Exercise: state measured normalized RNA/DNA level with ligand (log10) for each of the variants provided.
B1: library; a variant is named by its letters at N, in order (parent)
chain: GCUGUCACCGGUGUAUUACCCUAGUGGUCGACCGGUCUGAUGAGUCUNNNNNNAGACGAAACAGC

Variants of: B1
ASSAY COMMENT: normalized RNA/DNA level with ligand (relative to sTRSVctl = 100) (log10 (% of sTRSVctl)); ligand: hypoxanthine (xanthine aptamer); higher = less ribozyme self-cleavage, higher mRNA level
PARTICULARS: ligand concentration (+) RNA-Seq: 5 mM, HEK293T, reporter: mCherry (pCS4076), ligand present: yes
Answers are plain numbers.

Need normalized RNA/DNA level with ligand (log10) for each of these variants.
1. UCUAUG
2. AACGCC
3. AGGCUC
4. UGACAC
5. AGACGU

1.91
1.94
2.02
1.93
1.9

Need normalized RNA/DNA level with ligand (log10) for each of these variants.
1. GCCGCA
2. CGACAA

[1.96, 1.89]

Need normalized RNA/DNA level with ligand (log10) for each of these variants.
1. GGGCGU
2. GAGGCA

1: 2; 2: 1.94

Need normalized RNA/DNA level with ligand (log10) for each of these variants.
1. GCUGUC
2. GCGUUU
3. AUUGGA
4. UGUUAA
5. CAUCCG

1.91
1.97
1.94
1.94
1.95
